system: Escherichia coli TOP10; test: shrunken log2 fold change of peptide-encoding DNA abundance (4.5 h post-induction vs induction); higher = less antimicrobial activity (less host growth inhibition); settings: time post-induction: 4.5 h; library: site-saturation at positions 5, 18, 19, 20
Please note: y applies when shrunken log2 fold change is -0.08 or greater, and n applies otherwise.

{"residueCodes": "RRIRNRPPRLPRPRPRPTLKPRP", "qualitativeLabel": "y"}
{"residueCodes": "RRIRKRPPRLPRPRPRPSASPRP", "qualitativeLabel": "y"}
{"residueCodes": "RRIRLRPPRLPRPRPRPLHSPRP", "qualitativeLabel": "n"}

Exercise: Does the reported shrunken log2 fold change for `RRIRERPPRLPRPRPRPPYMPRP` fall at or above the -0.08 mark?
Solution: n

Exercise: Does the reported shrunken log2 fold change for `RRIRCRPPRLPRPRPRPVMPPRP` fall at or above the -0.08 mark?
Solution: n

Exercise: Does the reported shrunken log2 fold change for `RRIRHRPPRLPRPRPRPIRFPRP` fall at or above the -0.08 mark?
Solution: y

Exercise: Does the reported shrunken log2 fold change for `RRIRLRPPRLPRPRPRPMMDPRP` fall at or above the -0.08 mark?
Solution: n

Exercise: Does the reported shrunken log2 fold change for `RRIRNRPPRLPRPRPRPKIRPRP` fall at or above the -0.08 mark?
Solution: y

---

// shrunken log2 fold change lookup, one value per entry
test system: Escherichia coli TOP10; experiment: shrunken log2 fold change of peptide-encoding DNA abundance (4.5 h post-induction vs induction); higher = less antimicrobial activity (less host growth inhibition); conditions: time post-induction: 4.5 h; library: site-saturation at positions 5, 18, 19, 20
Just the number, please, no unit after it.

Please review the entries below; each comes with its answer.
{"residueCodes": "RRIRPRPPRLPRPRPRPVAPPRP", "shrunken log2 fold change": 0.411}
{"residueCodes": "RRIRERPPRLPRPRPRPMVIPRP", "shrunken log2 fold change": -0.0351}
{"residueCodes": "RRIRTRPPRLPRPRPRPAPDPRP", "shrunken log2 fold change": 0.15}
{"residueCodes": "RRIRGRPPRLPRPRPRPEYAPRP", "shrunken log2 fold change": 1.26}

The sequence `RRIRDRPPRLPRPRPRPNTKPRP` showed shrunken log2 fold change equal to -0.124

---

system: Escherichia coli TOP10; test: shrunken log2 fold change of peptide-encoding DNA abundance (4.5 h post-induction vs induction); higher = less antimicrobial activity (less host growth inhibition); conditions: time post-induction: 4.5 h; library: site-saturation at positions 5, 18, 19, 20;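 also: peptides expressed intracellularly from a pBAD plasmid library in pooled LB shake-flask culture, induced with 0.3% L-arabinose, DNA abundance read by NGS, three biological replicates, DESeq2 with apeglm shrinkage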
Please note: t applies when shrunken log2 fold change is 0.1 or greater, and f applies otherwise.

See these solved cases before continuing.
{"residueCodes": "RRIRFRPPRLPRPRPRPQMNPRP", "systemUnderTest": "Escherichia coli TOP10", "qualitativeLabel": "f"}
{"residueCodes": "RRIRIRPPRLPRPRPRPKRVPRP", "systemUnderTest": "Escherichia coli TOP10", "qualitativeLabel": "f"}
{"residueCodes": "RRIRERPPRLPRPRPRPGQFPRP", "systemUnderTest": "Escherichia coli TOP10", "qualitativeLabel": "f"}
{"residueCodes": "RRIRVRPPRLPRPRPRPVSEPRP", "systemUnderTest": "Escherichia coli TOP10", "qualitativeLabel": "t"}
{"residueCodes": "RRIRMRPPRLPRPRPRPNLIPRP", "systemUnderTest": "Escherichia coli TOP10", "qualitativeLabel": "f"}
{"residueCodes": "RRIRYRPPRLPRPRPRPGIGPRP", "systemUnderTest": "Escherichia coli TOP10", "qualitativeLabel": "f"}

Exercise: Does the reported shrunken log2 fold change for `RRIRTRPPRLPRPRPRPIATPRP` fall at or above the 0.1 mark?
Solution: t

Exercise: Does the reported shrunken log2 fold change for `RRIRWRPPRLPRPRPRPSKCPRP` fall at or above the 0.1 mark?
Solution: f
